EXPERIMENT: Aqueous solubility
Assay type: physicochemical
TEST_SETTINGS: phosphate buffer, pH 6.5, aqueous buffer, Phosphate Buffer pH 6.5; read-out: Solubility
Source text: The aqueous solubility of Sulfoxide-1, Sufloxide-1A, Sulfoxide-1B, Sulfone-1, and SM-1 was investigated.
Property: solubility; scope: individual compounds

- COMPOUND: "CCCO[C@H]1CC[C@H](N(C(=O)Nc2ncc([S+]([O-])CC(=O)O)s2)C2CCCCC2)CC1 (relative stereo) [Sulfoxide-1]"
  solubility, µg/mL: 2930
- COMPOUND: "CCCO[C@H]1CC[C@H](N(C(=O)Nc2ncc(SCC(=O)O)s2)C2CCCCC2)CC1 [SM-1, reference compound]"
  solubility, µg/mL: 21
- COMPOUND: "CCCO[C@H]1CC[C@H](N(C(=O)Nc2ncc([S+]([O-])CC(=O)O)s2)C2CCCCC2)CC1 (single isomer, unassigned) [Sulfoxide-1A]"
  solubility, µg/mL: 1940
- COMPOUND: "CCCO[C@H]1CC[C@H](N(C(=O)Nc2ncc(S(=O)(=O)CC(=O)O)s2)C2CCCCC2)CC1"
  solubility, µg/mL: 2100

----------
Property: solubility; scope: individual compounds
EXPERIMENT: Aqueous solubility
Assay type: physicochemical
TEST_SETTINGS: acetate buffer, pH 4.5, aqueous buffer, Acetate Buffer pH 4.5; read-out: Solubility
ASSAY_ENDPOINT: solubility (µg/mL)

- COMPOUND: "CCCO[C@H]1CC[C@H](N(C(=O)Nc2ncc([S+]([O-])CC(=O)O)s2)C2CCCCC2)CC1 (relative stereo) [Sulfoxide-1]"
  ASSAY_ENDPOINT: "solubility"
  DATA_VALUE: 2570
- COMPOUND: "CCCO[C@H]1CC[C@H](N(C(=O)Nc2ncc(S(=O)(=O)CC(=O)O)s2)C2CCCCC2)CC1"
  ASSAY_ENDPOINT: "solubility"
  DATA_VALUE: 2070
- COMPOUND: "CCCO[C@H]1CC[C@H](N(C(=O)Nc2ncc([S+]([O-])CC(=O)O)s2)C2CCCCC2)CC1 (single isomer, unassigned) [Sulfoxide-1A]"
  ASSAY_ENDPOINT: "solubility"
  DATA_VALUE: 1630
- COMPOUND: "CCCO[C@H]1CC[C@H](N(C(=O)Nc2ncc(SCC(=O)O)s2)C2CCCCC2)CC1 [SM-1, reference compound]"
  ASSAY_ENDPOINT: "solubility"
  DATA_VALUE: 0.44
